// provenance: the RNAGym collection of RNA variant scans (doi:10.7554/elife.90254)

B1: LINE1-mini (parent)
chain: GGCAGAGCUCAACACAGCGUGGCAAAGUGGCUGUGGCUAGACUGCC

- Variants of: B1
- procedure_details: self-cleavage, relative activity (ratio to wild type); higher = more cleavage; in vitro, sequencing; the parent is a self-cleaving ribozyme
Give Met when the value for self-cleavage is at least 0.2. Give Not met when it is less.

chain_sequence | assigned_category
GGCAGAGCUCAACACAUCGUGGCAAAGUGGCUGUGGCUAGACUGCC [G17U] | Met
GGCAGAGCUCACCACAGCGUGGCAAAGUGGCGGUGGCUAGACUGCC [A12C U32G] | Not met
CGCAGAGCUCAACACAGCGUGGCAAAGUCGCUGUGGCUAGACUGCC [G1C G29C] | Not met

Record GGCAGAGCUCAACACAGCGUGGCAAAUUGGCUGUGACUAGACUGCC [G27U G36A] ; criterion: self-cleavage no lower than 0.2. Met?
Met

Record GGCAGAGCUCAACACAGCGUCGCAAAGUGGCUGUGGCAAGACUGCC [G21C U38A] ; criterion: self-cleavage no lower than 0.2. Met?
Met

Record GGCAGAGCACGACACAGCGUGGCAAAGUGGCUGUGGCUAGACUGCC [U9A A11G] ; criterion: self-cleavage no lower than 0.2. Met?
Not met

Record GGCAGAGCUCAACACAGCGUGGUAAAGUGGCUGUGGCUAGACGGCC [C23U U43G] ; criterion: self-cleavage no lower than 0.2. Met?
Not met

Record GGCAGAGCUCAACGCGGCGUGGCAAAGUGGCUGUGGCUAGACUGCC [A14G A16G] ; criterion: self-cleavage no lower than 0.2. Met?
Not met

Record GGCAGAGCUCAACACAGCGUGGAAACGUGGCUGUGGCUAGACUGCC [C23A A26C] ; criterion: self-cleavage no lower than 0.2. Met?
Met

Record GGCAGAGCUCAACACAGCGUGGCAAAGUGGCAGUGGCUAUACUGCC [U32A G40U] ; criterion: self-cleavage no lower than 0.2. Met?
Not met

Record GGUAGAGCUCAACACAGCCUGGCAAAGUGGCUGUGGCUAGACUGCC [C3U G19C] ; criterion: self-cleavage no lower than 0.2. Met?
Met
